Data origin, for the record: patent US20170166598A1

tgt: human EGFR exon 20 insertion ASV (V769_D770insASV) (Homo sapiens, UniProt P00533, INS769ASV)
Sequence (P00533 with tags, fused parts or gaps INS769ASV): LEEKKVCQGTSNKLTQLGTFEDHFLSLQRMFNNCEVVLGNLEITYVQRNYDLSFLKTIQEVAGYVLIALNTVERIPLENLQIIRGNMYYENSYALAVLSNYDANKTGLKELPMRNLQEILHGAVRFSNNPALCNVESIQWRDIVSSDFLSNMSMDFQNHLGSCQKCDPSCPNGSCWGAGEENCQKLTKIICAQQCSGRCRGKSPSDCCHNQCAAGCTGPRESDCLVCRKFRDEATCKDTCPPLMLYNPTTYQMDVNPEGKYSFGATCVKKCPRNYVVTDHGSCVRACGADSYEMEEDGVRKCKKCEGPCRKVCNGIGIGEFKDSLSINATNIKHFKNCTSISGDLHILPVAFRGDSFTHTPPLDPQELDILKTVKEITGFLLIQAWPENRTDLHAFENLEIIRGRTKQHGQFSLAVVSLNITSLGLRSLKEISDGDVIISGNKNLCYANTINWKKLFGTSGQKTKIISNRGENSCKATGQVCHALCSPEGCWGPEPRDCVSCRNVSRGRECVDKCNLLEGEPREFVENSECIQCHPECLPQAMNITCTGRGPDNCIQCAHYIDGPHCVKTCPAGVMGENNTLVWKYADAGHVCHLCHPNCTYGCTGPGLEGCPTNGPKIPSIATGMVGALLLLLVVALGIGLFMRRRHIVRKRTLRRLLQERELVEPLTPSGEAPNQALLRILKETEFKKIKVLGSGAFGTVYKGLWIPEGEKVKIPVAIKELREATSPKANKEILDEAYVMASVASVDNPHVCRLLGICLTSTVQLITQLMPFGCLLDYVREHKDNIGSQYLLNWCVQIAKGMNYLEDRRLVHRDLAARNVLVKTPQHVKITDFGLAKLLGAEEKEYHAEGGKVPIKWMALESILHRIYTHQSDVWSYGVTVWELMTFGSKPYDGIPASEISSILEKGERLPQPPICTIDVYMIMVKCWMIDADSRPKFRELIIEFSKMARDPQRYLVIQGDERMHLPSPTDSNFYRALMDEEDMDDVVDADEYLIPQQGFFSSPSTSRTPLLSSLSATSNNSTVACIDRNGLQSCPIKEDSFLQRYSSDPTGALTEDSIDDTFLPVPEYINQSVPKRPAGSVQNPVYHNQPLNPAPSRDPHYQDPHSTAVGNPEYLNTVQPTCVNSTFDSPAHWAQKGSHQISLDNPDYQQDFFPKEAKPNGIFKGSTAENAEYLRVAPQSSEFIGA
assay.name: Ba/F3-EGFR-Exon20-ASV cell anti-proliferative assay (CellTiter 96 MTS, 72 h)
measurement.conditions: Ba/F3-EGFR-Exon20-ASV cells
Quick list: IC50 per entry.

[
  {
    "compound": "C=CC(=O)Nc1cc(Nc2ncc(CCC#N)c(-c3cn4c5c(cccc35)CCC4)n2)c(OC)cc1N(C)CCN(C)C [Example 41]",
    "measure.name": "IC50",
    "observed": "< 100 nM"
  }
]

Kindly note the recorded IC50 for C=CC(=O)Nc1cc(Nc2ncc(C(O)CC)c(-c3cn4c5c(cccc35)CCC4)n2)c(OC)cc1N(C)CCN(C)C (stereo not drawn) [Example 73] , which is < 100 nM

Kindly note the recorded IC50 for C=CC(=O)Nc1cc(Nc2ncc(OCCOC)c(-c3cn4c5c(cccc35)CCC4)n2)c(OC)cc1N(C)CCN(C)C [Example 104] , which is < 100 nM

Kindly note the recorded IC50 for C=CC(=O)Nc1cc(Nc2ncc(NC(=O)CC)c(-c3cn4c5c(cccc35)CCC4)n2)c(OC)cc1N(C)CCN(C)C [Example 91] , which is < 100 nM

Kindly note the recorded IC50 for C=CC(=O)Nc1cc(Nc2ncc(OC)c(-c3cn4c5c(cccc35)CCC4)n2)c(OC)cc1N(C)CCN(C)C [Example 19] , which is < 100 nM
